Test system: MDA-MB-468 cells
Run description: MDA-MB-468 cell viability, CellTiter-Glo, 24 hrs
Type: cell-based, human
Measurement conditions: Homo sapiens, 24 hrs incubation
Assay readout: EC50

# example entries with known answers
INSERT INTO measurements (molecule, target_entity, assay_readout, result) VALUES
  ('Oc1ccccc1O [E05_E, 1,2-Dihydroxybenzene (Catechol)]', 'MDA-MB-468 cells', 'EC50', '103 µM'),
  ('O=C(O)/C=C/c1ccc(O)c(O)c1 [E05_A]', 'MDA-MB-468 cells', 'EC50', '122 µM');

### Prompt Quote EC50 reported for O=C(O)CCc1ccc(O)c(O)c1 [E05, 3-(3,4-Dihydroxyphenyl) propanoic acid] please.
### Response 86.1 µM

###

Run description: Pharmacokinetic study after single oral administration
Assay type: in vivo
Measurement conditions: Sprague Dawley, rat, plasma; single oral gavage 10 mg/kg, male rats; read-out: mean time to reach peak plasma concentration (Tmax)
Assay readout: Tmax (min)
All answers are understood in min, so give the number only.

### Prompt Specify measured Tmax for O=C(O)CCc1ccc(O)c(O)c1 [E05, 3-(3,4-Dihydroxyphenyl) propanoic acid] .
### Response 15

###

Run description: Pharmacokinetic study after single oral administration
Assay type: in vivo
Measurement conditions: Sprague Dawley, rat, plasma; single oral gavage 10 mg/kg, male rats
Assay readout: Cmax (ng/mL)
Quick reminder: number only, in ng/mL, skip the unit.

### Prompt Name the recorded Cmax of the compound listed here: O=C(O)CCc1ccc(O)c(O)c1 [E05, 3-(3,4-Dihydroxyphenyl) propanoic acid]
### Response 306

###

Run description: Pharmacokinetic study after single oral administration
Format: in vivo
Measurement conditions: Sprague Dawley, rat, plasma; single oral gavage 10 mg/kg, male rats
Assay readout: AUC(0-t)

### Prompt Give AUC(0-t) for the following molecule: O=C(O)CCc1ccc(O)c(O)c1 [E05, 3-(3,4-Dihydroxyphenyl) propanoic acid]
### Response 151 ng·h/mL
